Target: human thrombopoietin receptor (c-mpl) (Homo sapiens, UniProt P40238)
Construct: expressed in transfected cells
Sequence (P40238 26-635): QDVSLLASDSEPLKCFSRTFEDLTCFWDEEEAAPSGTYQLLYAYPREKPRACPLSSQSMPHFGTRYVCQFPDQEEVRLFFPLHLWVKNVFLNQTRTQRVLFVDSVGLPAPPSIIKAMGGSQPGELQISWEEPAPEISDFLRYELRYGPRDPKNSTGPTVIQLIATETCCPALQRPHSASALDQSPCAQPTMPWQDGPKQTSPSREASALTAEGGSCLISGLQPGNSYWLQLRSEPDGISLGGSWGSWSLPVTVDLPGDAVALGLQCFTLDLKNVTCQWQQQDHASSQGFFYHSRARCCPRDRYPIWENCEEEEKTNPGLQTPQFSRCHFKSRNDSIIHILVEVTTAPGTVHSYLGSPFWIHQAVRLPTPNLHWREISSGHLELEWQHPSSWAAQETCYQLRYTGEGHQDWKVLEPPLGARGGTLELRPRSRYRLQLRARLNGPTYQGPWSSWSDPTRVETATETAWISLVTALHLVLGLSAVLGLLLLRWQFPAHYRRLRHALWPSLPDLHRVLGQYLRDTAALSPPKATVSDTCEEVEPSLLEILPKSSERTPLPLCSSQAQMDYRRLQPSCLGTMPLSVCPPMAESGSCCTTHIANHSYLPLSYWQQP
Test: Stimulation of proliferation of thrombopoietin-dependent cell line UT7/EPO-mpl (WST-8)
Assay type: cell-based
Conditions: human leukemic cell line UT-7/EPO-mpl; 4 days incubation; relative to 10 ng/mL TPO; read-out: EC50 (concentration that yields a growth rate corresponding to 50% of the growth observed in the presence of 10 ng/mL TPO) (converted)
PROPERTY: EC50 (nM)

Illustrative cases are given below, each with its answer.
COMPOUND	PROPERTY	RECORDED NUMBER
C/C(=N\NC(=O)c1ccc(C(=O)NCCCN2CCOCC2)s1)c1nn(C)c(-c2ccc(C(F)(F)F)cc2)c1O	EC50	2.77
COC1CN(C(=O)c2ccc(C(=O)N/N=C(\C)c3csc(-c4ccc(Br)cc4)c3O)s2)CC1OC (centres unmarked)	EC50	5.01
C/C(=N\NC(=O)c1ccc(C(=O)NN(C)C)s1)c1csc(-c2ccc(C(C)(C)C)cc2)c1O	EC50	2.27

A = C/C(=N\NC(=O)c1ccc(C(=O)N2CC(O)C(O)C2)s1)c1csc(-c2cccc(Cl)c2)c1O (centres unmarked)
B = C/C(=N\NC(=O)c1ccc(C(=O)NCCC(=O)O)s1)c1csc(-c2ccc(Cl)cc2)c1O
C = C/C(=N\NC(=O)c1ccc(C(=O)NCCC(=O)O)s1)c1csc(-c2ccc(C)c(C)c2)c1O
D = C/C(=N\NC(=O)c1ccc(C(=O)NNc2ccccn2)s1)c1csc(-c2ccc(Cl)c(Cl)c2)c1O
Q: Hey, quick one: sort these by EC50, largest value first please. Returns: the labels arranged in the requested order.
A: B, C, D, A
